Target: A31 (A*3101) (Homo sapiens, UniProt P04439, A270S/D185E/E176V/E277Q/F33T/G231S/G80R/H175R/I121M/I218V/I322F/K168Q/L300P/L318F/M331R/P217A/Q94H/R138Q/T323A/T345S/T97I/V358M)
Assay: biochemical
Format: binding
pIC50: −log10 of the molar value. No end group written: not given here.
Measured pIC50 by item

Sequence: AQIEHWKLTR [Peptide 88.0226]
pIC50: 6.53
--
Sequence: SQWIRFRCSK [Peptide 88.0147]
pIC50: 6.43
--
Sequence: SVFQNLQVIK [Peptide 9012.0231]
pIC50: 5.45
--
Sequence: VSIEWRQRR [Peptide 9017.0089]
pIC50: 8.82
--
Sequence: GSQPKTACNK [Peptide 9017.0202]
pIC50: 5.83
--
Sequence: IVFIEYRKIR [Peptide 9017.0245]
pIC50: 7.92
--
Sequence: SFFSRTWCK [Peptide 88.0363]
pIC50: 7.92
--
Sequence: AFTDLTIVYR [Peptide 78.0052]
pIC50: 6.09
--
Sequence: ILYQSNPYPK [Peptide 9017.0198]
pIC50: 6.26
--
Sequence: RILSTCLGR [Peptide 9017.0073]
pIC50: 8.07

----------
Target: A*6802 (Homo sapiens, UniProt P04439, A269V/D140Y/D185E/E176V/E277Q/E87N/F33Y/G231S/I121R/I166T/I218V/L180W/L300P/L318F/N151K/P208A/P217A/Q86R/R138H/R169H/S129P/T345S/V36M)
Assay: biochemical
Assay type: binding
No end group written: not given here.
Listed below: IC50 values for each entry.

Sequence: VLGEAMSQA [Peptide 1539.08]
IC50: > 20 µM

Sequence: GLMIGVLVGVA [Peptide 9013.0345]
IC50: > 20 µM

Sequence: VQWAFDNEV [Peptide 86.0209]
IC50: > 20 µM

----------
Target: DRB1*0405 (Homo sapiens, UniProt P01903+P01911, A100R/A169T/D86S/F76Y/I96L/K127E/L162R/M171V/N62H/P40V/Q125Y/R42H/S133A/S149N/S66Y/V115G/V209L/W38E)
Assay: biochemical
Format: binding
pIC50: −log10 of the molar value. No end group written: not given here.
This section presents sequences with their documented pIC50 values.
Experimental Endpoint: pIC50

Sequence: SNEVSSPEIIRQHLA [Peptide 1601.06]
Reported: < 4.70
//
Sequence: LSQVKIPKTITVSTG [Peptide 89.0158]
Reported: < 4.70
//
Sequence: YLVCGERGFFYTKPT [Peptide 9000.0079]
Reported: < 4.52

----------
Biological target: HLA-A1 (A*0101) (Homo sapiens, UniProt P04439, A114D/A174V/A182V/D101N/D185E/E176A/E190D/L180R/Q94H/R68K/S129P/T187R/V100A/V91M/W191G)
Assay: biochemical
Assay type: binding
No end group written: not given here.
Could you mark each record criterion met if its IC50 falls strictly under 10 nM, and criterion not met if it equals or exceeds it?

Sequence: IVNRVRQGY [Peptide 1595.07]
Class Label: criterion not met

Sequence: VSRDAKGWFY [Peptide 9018.0014]
Class Label: criterion not met

Sequence: TWETWWTDY [Peptide 9015.0019]
Class Label: criterion not met

Sequence: STDAALYWY [Peptide 1593.02]
Class Label: criterion met

Sequence: SSDSTTINY [Peptide 9012.0130]
Class Label: criterion met

Sequence: GTSSFSTTINY [Peptide 9012.0190]
Class Label: criterion not met

Sequence: LSDTRNDVGPY [Peptide 9012.0164]
Class Label: criterion not met

Sequence: ETWETWWTDY [Peptide 9015.0169]
Class Label: criterion not met

----------
Molecular target: DRB4*0101 (Homo sapiens, UniProt P01903+P13762, G164S)
Test: biochemical
Type: binding
pIC50: −log10 of the molar value. No end group written: not given here.

Sequence: LLQLKCPPILLTSNI [Peptide 89.0091]
Inequality Sign: =
pIC50: 6.91
--
Sequence: LIRMECAIMYTARQM [Peptide 90.0022]
Inequality Sign: =
pIC50: 6.80
--
Sequence: IHFIQGAVISFVNST [Peptide 89.0037]
Inequality Sign: =
pIC50: 6.81
--
Sequence: FKKFLKGIPKKSCML [Peptide 89.0073]
Inequality Sign: =
pIC50: 5.65
--
Sequence: YKTLFVDVTSTYHWT [Peptide 90.0241]
Inequality Sign: <
pIC50: 4.70
--
Sequence: QSTQVDIRILQELLM [Peptide 1543.11]
Inequality Sign: =
pIC50: 6.74

----------
Molecular target: DRB1*1101 (Homo sapiens, UniProt P01903+P01911, A100R/A169T/A87E/I96F/K41T/L162R/M171V/P40S/Q125H/Q178H/Q39Y/Q99D/R42S/S66Y/T262R/V115G/W38E)
Sequence (P01903 26-254 limits assumed, other chains not shown): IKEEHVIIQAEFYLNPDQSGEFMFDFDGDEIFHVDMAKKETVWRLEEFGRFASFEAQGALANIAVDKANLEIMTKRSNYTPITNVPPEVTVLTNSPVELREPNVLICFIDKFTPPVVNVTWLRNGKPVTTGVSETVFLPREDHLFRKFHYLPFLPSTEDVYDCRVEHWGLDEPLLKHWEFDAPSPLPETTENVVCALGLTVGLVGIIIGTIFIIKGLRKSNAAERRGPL
Test: biochemical
Details: Binding affinity DRB1 *1101
No end group written: not given here.
Note to self: IC50 under 0.9 µM means condition met, ties and anything higher get condition not met.

Sequence: FLSYFKLFLQGTPKH [Peptide 89.0132]
Class Label: condition not met

Sequence: SWGMVVLLLVRYKCG [Peptide 89.0005]
Class Label: condition not met

Sequence: ESDMAFQYAQLADCN [Peptide 89.0085]
Class Label: condition not met

Sequence: QRFHNIRGRWTGRCM [Peptide 1543.27]
Class Label: condition met

Sequence: WKLIRMECALLYTAK [Peptide 90.0199]
Class Label: condition not met

Sequence: RLTVAKLMSNLLSIP [Peptide 89.0065]
Class Label: condition met

Sequence: QAELETAQALFHAQE [Peptide 89.0022]
Class Label: condition not met

Sequence: PEWIQRLTIIQHGID [Peptide 89.0031]
Class Label: condition met

Sequence: SRVIVCPTSIPSDQI [Peptide 90.0027]
Class Label: condition not met

Sequence: KWGVLILALLRYKCG [Peptide 89.0027]
Class Label: condition met

Sequence: RLNVCQDKILTHYEN [Peptide 90.0160]
Class Label: condition met

Sequence: EISFAGIVTKLPTAN [Peptide 89.0174]
Class Label: condition not met

Sequence: DWCVAAFGVTGTVAE [Peptide 89.0042]
Class Label: condition not met

Sequence: NTEVETQQMLQVEGR [Peptide 89.0002]
Class Label: condition not met

Sequence: GKSLFGMSLMKFLQG [Peptide 89.0019]
Class Label: condition not met

Sequence: DRGIIILLLIRFRCS [Peptide 89.0062]
Class Label: condition not met

Sequence: RQHLANHPAATHTKA [Peptide 89.0155]
Class Label: condition not met

Sequence: CQAIELQLALEALNK [Peptide 90.0014]
Class Label: condition not met

Sequence: GVYYIKDGDTTYYVQ [Peptide 90.0216]
Class Label: condition not met

Sequence: QERPRKLPQLCTELQ [Peptide 1543.22]
Class Label: condition not met

Sequence: QHSFNDDIFDLSEMI [Peptide 90.0152]
Class Label: condition not met

Sequence: RLTVAKGLSTLLHVP [Peptide 89.0028]
Class Label: condition met

Sequence: GVILYSDPADYFAPG [Peptide 68.0170]
Class Label: condition not met

Sequence: QWAYDNDIVDDSEIA [Peptide 90.0036]
Class Label: condition not met

Sequence: ISEVYGDTPEWIQRQ [Peptide 90.0035]
Class Label: condition not met

Sequence: DNELTDDSDIAYYYA [Peptide 90.0085]
Class Label: condition not met

Sequence: LLQLKCPPILLTSNI [Peptide 89.0091]
Class Label: condition not met

Sequence: GCWRQTSREPRESTV [Peptide 1543.46]
Class Label: condition met

Sequence: HALFTAQEAKQHRDA [Peptide 89.0001]
Class Label: condition not met

----------
Target: DR1 (DRB1*0101) (Homo sapiens, UniProt P01903+P01911, A100R/D57E/F55L/F60I/F76Y/I96L/L162R/M171V/P40L/Q125E/R42F/V115G/Y59C)
Experiment: biochemical
Type: binding
pIC50: −log10 of the molar value. No end group written: not given here.
Each entry falls into one class according to its pIC50; the ranges are lower level: < 6; middle level: ≥ 6 and < 7; upper level: ≥ 7

Sequence: DMKLRLIASPETHLD [Peptide 9014.0118]
Class Label: upper level
--
Sequence: LVQLKCPPLLLTSNT [Peptide 89.0077]
Class Label: upper level
--
Sequence: DNELTDDSDIAYYYA [Peptide 90.0085]
Class Label: lower level
--
Sequence: KIFGSLAYLPESFDGDPA [Peptide 9014.0253]
Class Label: middle level
--
Sequence: GGDWKQIVMFLRYQG [Peptide 89.0013]
Class Label: lower level
--
Sequence: LLQLKCPPILLTSNI [Peptide 89.0091]
Class Label: upper level
--
Sequence: AQEVHNDAQVLHVLK [Peptide 90.0047]
Class Label: middle level
--
Sequence: LETIYNSQYSNEKWT [Peptide 1601.03]
Class Label: lower level
--
Sequence: NGWFYVEAVVEKKTG [Peptide 90.0029]
Class Label: middle level
--
Sequence: KIGMLDDATVPCWNY [Peptide 90.0040]
Class Label: lower level
--
Sequence: GTDMKLRLTASPETH [Peptide 9014.0103]
Class Label: upper level
--
Sequence: NSIFDFGEMVQWAYD [Peptide 89.0106]
Class Label: lower level
--
Sequence: LKGDANILKCLRYRL [Peptide 1601.26]
Class Label: lower level
--
Sequence: ISEVMGDTPEWIQRL [Peptide 90.0052]
Class Label: lower level
--
Sequence: DNDIVDDSEIAYKYA [Peptide 90.0037]
Class Label: lower level
--
Sequence: LKLFLKGVPKKNCIL [Peptide 89.0054]
Class Label: middle level
--
Sequence: AFQVIELQMALETLN [Peptide 90.0024]
Class Label: upper level
--
Sequence: VMAIFGVNPTVAEGF [Peptide 89.0080]
Class Label: middle level
--
Sequence: QQTVCREGVKRRLIL [Peptide 90.0129]
Class Label: lower level
--
Sequence: TELNTSLQDIEITCV [Peptide 1543.34]
Class Label: lower level
--
Sequence: ETELVEPLIPSGAMP [Peptide 9014.0152]
Class Label: upper level
--
Sequence: GTDMKLRLIASPETH [Peptide 9014.0099]
Class Label: upper level
--
Sequence: YKTLFVDVTSTYHWT [Peptide 90.0241]
Class Label: lower level
--
Sequence: LSQVKIPKTITVSTG [Peptide 89.0158]
Class Label: lower level
--
Sequence: HWKLIRMECAIMYTA [Peptide 90.0021]
Class Label: upper level
--
Sequence: HKAIELQMALKGLAQ [Peptide 90.0004]
Class Label: upper level
--
Sequence: LIRLENAILFTAREH [Peptide 90.0002]
Class Label: upper level
--
Sequence: LNTVKIPPTVQISTG [Peptide 90.0028]
Class Label: lower level
--
Sequence: EVHMENESIYCPDSV [Peptide 90.0238]
Class Label: middle level
--
Sequence: GNEIFNTSLFEPPPP [Peptide 68.0090]
Class Label: lower level
--
Sequence: PCHTTKLLHRDSVDS [Peptide 1601.07]
Class Label: lower level
